Reported IC50, Kallikrein-12 (Homo sapiens, UniProt Q9UKR0).

moleculesmiles=CC1=C(C#N)[C@@H](c2ccc(C#N)cc2S(C)(=O)=O)N(C)C(=O)N1c1cccc(C(F)(F)F)c1 assayresult="> 30 µM"

Give IC50 (Kallikrein-12 (Homo sapiens, UniProt Q9UKR0)) of the following compound: `CC(=O)C1=C(C)N(c2cccc(C(F)(F)F)c2)C(=O)N[C@@H]1c1ccc(C#N)nc1`
> 30 µM

----------
# measuredTarget: Prolyl endopeptidase FAP (Homo sapiens, UniProt Q12884)
# Sequence (Q12884 whole entry): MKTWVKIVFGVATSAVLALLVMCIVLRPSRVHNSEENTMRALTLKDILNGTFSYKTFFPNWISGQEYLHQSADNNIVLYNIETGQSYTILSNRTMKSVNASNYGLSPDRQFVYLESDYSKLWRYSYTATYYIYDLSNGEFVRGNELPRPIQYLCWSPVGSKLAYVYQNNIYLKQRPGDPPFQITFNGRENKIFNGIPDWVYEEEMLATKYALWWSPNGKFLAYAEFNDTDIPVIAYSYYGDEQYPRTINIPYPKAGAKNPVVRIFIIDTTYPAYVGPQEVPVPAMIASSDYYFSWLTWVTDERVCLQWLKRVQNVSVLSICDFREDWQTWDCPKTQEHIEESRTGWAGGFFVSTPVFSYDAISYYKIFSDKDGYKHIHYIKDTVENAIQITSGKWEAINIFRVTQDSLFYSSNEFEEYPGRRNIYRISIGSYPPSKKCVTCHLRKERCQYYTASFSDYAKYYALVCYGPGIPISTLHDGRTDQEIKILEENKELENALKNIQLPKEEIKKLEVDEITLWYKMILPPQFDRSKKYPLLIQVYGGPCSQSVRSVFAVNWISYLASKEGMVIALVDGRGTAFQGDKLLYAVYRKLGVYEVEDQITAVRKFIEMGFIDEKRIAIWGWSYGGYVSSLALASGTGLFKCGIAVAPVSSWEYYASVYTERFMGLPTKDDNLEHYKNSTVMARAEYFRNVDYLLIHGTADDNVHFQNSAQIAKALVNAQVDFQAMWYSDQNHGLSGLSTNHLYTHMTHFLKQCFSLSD
pIC50: −log10 of the molar value.
endpointName: pIC50

compound=CC1=C(C#N)[C@@H](c2ccc(C#N)cc2S(C)(=O)=O)N(C)C(=O)N1c1cccc(C(F)(F)F)c1 assayresult="< 4.52"

Give pIC50 (Prolyl endopeptidase FAP (Homo sapiens, UniProt Q12884)) of the following compound: CC(=O)C1=C(C)N(c2cccc(C(F)(F)F)c2)C(=O)N[C@@H]1c1ccc(C#N)nc1 [BAY-678]
< 4.52

Data origin, for the record: ChEMBL document CHEMBL5653621
